Listed here are compounds together with their documented cAMP.
# experimental_target: 5-hydroxytryptamine receptor 4 (Homo sapiens, UniProt Q13639)
# Sequence (Q13639 whole entry): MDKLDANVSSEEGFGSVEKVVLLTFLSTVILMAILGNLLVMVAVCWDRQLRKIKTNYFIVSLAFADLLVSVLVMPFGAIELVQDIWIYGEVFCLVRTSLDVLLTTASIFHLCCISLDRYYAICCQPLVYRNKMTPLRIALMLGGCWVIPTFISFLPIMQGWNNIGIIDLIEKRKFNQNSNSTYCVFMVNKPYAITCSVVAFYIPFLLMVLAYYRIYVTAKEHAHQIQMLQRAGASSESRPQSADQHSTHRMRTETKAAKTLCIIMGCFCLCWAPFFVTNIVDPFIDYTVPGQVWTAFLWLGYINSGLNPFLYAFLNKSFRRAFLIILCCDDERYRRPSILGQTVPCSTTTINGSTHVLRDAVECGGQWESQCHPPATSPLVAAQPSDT
# test_description: Percent cAMP production in C6 glial cells expressing human 5-hydroxytryptamine 4 receptor
# Format: functional, cell-based
The figure you give is taken to be in %; do not add the unit.

structure_smiles_string | cAMP, %
COc1cc(N)c(Cl)cc1C(=O)OCCN1CCC(C(=O)NCCCOCCOCCOCNC(=O)C2CCN(CCOC(=O)c3cc(Cl)c(N)cc3OC)CC2)CC1 | 0

So what cAMP did COc1cc(N)c(Cl)cc1C(=O)OCCN1CCC(NC(=O)CCCCCCCCCCC(=O)NC2CCN(CCOC(=O)c3cc(Cl)c(N)cc3O)CC2)CC1 get with 5-hydroxytryptamine receptor 4 (Homo sapiens, UniProt Q13639)?
20

* * *

Observed Ki, system 5-hydroxytryptamine receptor 4 (Homo sapiens, UniProt Q13639).
# output: bare number, implied unit nM

structure_smiles_string | numeric_result
COc1cc(N)c(Cl)cc1C(=O)OCCN1CCC(C(=O)NCCCOCCOCCOCNC(=O)C2CCN(CCOC(=O)c3cc(Cl)c(N)cc3OC)CC2)CC1 | 6
COc1cc(N)c(Cl)cc1C(=O)OCCN1CCC(NC(=O)CCc2ccc3c(c2)oc2cc(CCC(=O)NC4CCN(CCOC(=O)c5cc(Cl)c(N)cc5OC)CC4)ccc23)CC1 | 47

I'm curious: which Ki was measured for COc1cc(N)c(Cl)cc1C(=O)OCCN1CCC(CCNC(=O)CCCCCC(=O)NCCC2CCN(CCOC(=O)c3cc(Cl)c(N)cc3OC)CC2)CC1 tested on 5-hydroxytryptamine receptor 4 (Homo sapiens, UniProt Q13639)?
11

* * *

# experimental_target: 5-hydroxytryptamine receptor 4 (Homo sapiens, UniProt Q13639)
# test_description: Binding affinity for 5-HT4 receptor using [3H]GR-113808
Each entry below lists one item and its recorded Ki value.

structure_smiles_string | Ki
COc1cc(N)c(Cl)cc1C(=O)OCCN1CCC(NC(=O)CCCCCCCCCCC(=O)NC2CCN(Cc3ccccc3)CC2)CC1 | 14 nM
COc1cc(N)c(Cl)cc1C(=O)OCCN1CCC(NC(=O)CCCCCCCCCCC(=O)NC2CCN(CCOC(=O)c3cc(Cl)c(N)cc3O)CC2)CC1 | 16 nM

Okay, next one:
Give the reported Ki for COc1cc(N)c(Cl)cc1C(=O)OCCN1CCC(NC(=O)CCCCCCCCCCN)CC1 (system: 5-hydroxytryptamine receptor 4 (Homo sapiens, UniProt Q13639)).
13 nM

* * *

# experimental_target: UniProt:Q13639
# test_description: Percent cAMP production in C6 glial cells expressing human 5-hydroxytryptamine 4 receptor
# Type: functional, cell-based
Each record is given rule met if its reported cAMP is strictly below 30%. Records at or above 30% are given rule not met.

structure_smiles_string | class_name
COc1cc(N)c(Cl)cc1C(=O)OCCN1CCC(NC(=O)CCCNC(=O)C2CCN(CCOC(=O)c3cc(Cl)c(N)cc3OC)CC2)CC1 | rule not met
COc1cc(N)c(Cl)cc1C(=O)OCCN1CCC(CCNC(=O)CCCCCCCCCCC(=O)NCCC2CCN(CCOC(=O)c3cc(Cl)c(N)cc3OC)CC2)CC1 | rule met
COc1cc(N)c(Cl)cc1C(=O)OCCN1CCC(CNC(=O)CCC(=O)NCC2CCN(CCOC(=O)c3cc(Cl)c(N)cc3OC)CC2)CC1 | rule met
COc1cc(N)c(Cl)cc1C(=O)OCCN1CCC(C(=O)NCCOCCNC(=O)C2CCN(CCOC(=O)c3cc(Cl)c(N)cc3OC)CC2)CC1 | rule met
COc1cc(N)c(Cl)cc1C(=O)OCCN1CCC(NC(=O)CCCC(=O)NC2CCN(CCOC(=O)c3cc(Cl)c(N)cc3OC)CC2)CC1 | rule not met

Below 30% on cAMP? Entry COc1cc(N)c(Cl)cc1C(=O)OCCN1CCC(CCNC(=O)CCCC(=O)NCCC2CCN(CCOC(=O)c3cc(Cl)c(N)cc3OC)CC2)CC1
rule met

Consider the compound COc1cc(N)c(Cl)cc1C(=O)OCCN1CCC(C(=O)NCCCNC(=O)C2CCN(CCOC(=O)c3cc(Cl)c(N)cc3OC)CC2)CC1 . Is its cAMP strictly less than 30%?
rule met

Hello, is cAMP of the following compound strictly smaller than 30%? COc1cc(N)c(Cl)cc1C(=O)OCCN1CCC(NC(=O)CCc2ccc3c(c2)oc2cc(CCC(=O)NC4CCN(CCOC(=O)c5cc(Cl)c(N)cc5OC)CC4)ccc23)CC1
rule met

# check: cAMP < 30% for COc1cc(N)c(Cl)cc1C(=O)OCCN1CCC(NC(=O)CCCCCC(=O)NC2CCN(CCOC(=O)c3cc(Cl)c(N)cc3OC)CC2)CC1
rule met

Identify whether the compound COc1cc(N)c(Cl)cc1C(=O)OCCN1CCC(CNC(=O)CCCC(=O)NCC2CCN(CCOC(=O)c3cc(Cl)c(N)cc3OC)CC2)CC1 records cAMP below 30%.
rule met

Does this compound meet the criterion cAMP < 30%? COc1cc(N)c(Cl)cc1C(=O)OCCN1CCCCC1
rule not met

Is cAMP strictly under 30% for the entry COc1cc(N)c(Cl)cc1C(=O)OCCN1CCC(NC(=O)CCCCCNC(=O)C2CCN(CCOC(=O)c3cc(Cl)c(N)cc3OC)CC2)CC1 ?
rule not met
